Molecular target: EF2K (Homo sapiens, UniProt O00418)
Construct: host or cells: LN-229 cell lysate
Sequence (O00418 1-725): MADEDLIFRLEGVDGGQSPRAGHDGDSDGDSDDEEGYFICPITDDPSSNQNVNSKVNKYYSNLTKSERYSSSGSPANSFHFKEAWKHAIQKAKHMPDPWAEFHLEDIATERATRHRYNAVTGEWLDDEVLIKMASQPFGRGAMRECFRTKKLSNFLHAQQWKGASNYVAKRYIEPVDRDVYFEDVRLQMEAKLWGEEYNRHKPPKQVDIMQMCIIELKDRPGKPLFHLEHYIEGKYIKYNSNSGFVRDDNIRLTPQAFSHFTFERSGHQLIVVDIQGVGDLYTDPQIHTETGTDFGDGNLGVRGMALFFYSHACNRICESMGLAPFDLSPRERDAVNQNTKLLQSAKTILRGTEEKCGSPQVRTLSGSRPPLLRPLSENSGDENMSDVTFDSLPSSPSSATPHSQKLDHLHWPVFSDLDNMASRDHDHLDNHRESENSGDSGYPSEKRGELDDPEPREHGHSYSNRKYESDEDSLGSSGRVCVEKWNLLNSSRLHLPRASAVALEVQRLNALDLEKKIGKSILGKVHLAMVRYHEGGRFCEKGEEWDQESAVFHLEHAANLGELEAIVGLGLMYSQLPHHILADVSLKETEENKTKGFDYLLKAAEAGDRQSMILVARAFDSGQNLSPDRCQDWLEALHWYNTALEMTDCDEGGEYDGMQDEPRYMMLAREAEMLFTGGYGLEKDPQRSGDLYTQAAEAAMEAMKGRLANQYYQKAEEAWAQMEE
Assay: EF2K cell-based assay (P-EF2 AlphaLISA, 2-deoxyglucose stimulated MCF10A cells)
Settings: 2.5 mM 2-deoxyglucose stimulated, P-EF2 Thr56, pIC50 = -log IC50 (M), read-out: eEF2K_C_PThr56 pIC50 (converted)
Value Type: IC50 (M)

A. N#Cc1ccc2cc1CN1CCN(CC1)CC(=O)NCCCNc1ccc(cn1)-c1ccnc(n1)N2 [Compound 14]
B. O=C1CN2CCN(CC2)Cc2cccc(c2)Nc2nccc(n2)-c2ccc(nc2)CN(C(=O)C(F)(F)F)CCN1 [Compound 132]
C. O=C1CN2CCN(CC2)Cc2cccc(c2)Nc2nccc(n2)-c2ccc(nc2)NCC(O)CN1 (single isomer, unassigned) [Compound 24]
Asked: Put the listed items above in order, lowest IC50 first. Return the labels ranked in the requested order, please.
Given back: B, A, C
(B: 3.98e-06 M, A: 7.59e-06 M, C: 1.1e-05 M)

* * *

biological target: Vps34 (PIK3C3 lipid kinase) (Homo sapiens, UniProt Q8NEB9); experiment: Biochemical Vps34 lipid kinase assay (ADP-Glo); details: 1 h, single dose 1 μM compound; residual activity compared to control (DMSO); read-out: VPS34_1microM_% of cntrl
Sequence (Q8NEB9 whole entry, species assumed): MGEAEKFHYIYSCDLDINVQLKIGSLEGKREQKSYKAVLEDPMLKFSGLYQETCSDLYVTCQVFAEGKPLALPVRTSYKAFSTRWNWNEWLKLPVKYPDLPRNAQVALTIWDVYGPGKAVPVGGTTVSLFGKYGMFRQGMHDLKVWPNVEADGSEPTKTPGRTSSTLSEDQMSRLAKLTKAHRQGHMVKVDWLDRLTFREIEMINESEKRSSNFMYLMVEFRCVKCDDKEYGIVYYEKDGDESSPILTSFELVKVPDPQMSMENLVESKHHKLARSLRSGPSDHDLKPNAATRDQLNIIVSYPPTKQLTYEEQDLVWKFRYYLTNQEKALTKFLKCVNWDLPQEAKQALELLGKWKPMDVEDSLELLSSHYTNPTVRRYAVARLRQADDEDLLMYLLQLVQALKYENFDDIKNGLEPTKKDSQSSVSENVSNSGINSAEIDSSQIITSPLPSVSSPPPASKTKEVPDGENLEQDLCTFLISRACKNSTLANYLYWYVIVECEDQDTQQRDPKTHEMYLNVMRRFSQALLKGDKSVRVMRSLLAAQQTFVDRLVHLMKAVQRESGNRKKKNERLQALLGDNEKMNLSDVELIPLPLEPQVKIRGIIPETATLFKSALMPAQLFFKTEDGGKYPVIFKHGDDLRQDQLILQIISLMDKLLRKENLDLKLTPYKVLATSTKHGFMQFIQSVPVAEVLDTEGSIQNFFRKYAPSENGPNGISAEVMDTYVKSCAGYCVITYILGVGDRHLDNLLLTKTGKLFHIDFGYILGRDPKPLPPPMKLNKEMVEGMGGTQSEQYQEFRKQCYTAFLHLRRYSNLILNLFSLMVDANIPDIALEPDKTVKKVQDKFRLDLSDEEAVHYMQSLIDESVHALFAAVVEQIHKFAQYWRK
Value Type: remaining activity at 1 µM (%)

Compound	Target Or Test System	Experimental Value
O=C1CN2CCN(CCc3cccc(c3)Nc3nccc(n3)-c3ccc(nc3)NCCCN1)CC2 [Compound 118]	Vps34 (PIK3C3 lipid kinase) (Homo sapiens, UniProt Q8NEB9)	8.1

A. O=C1CN2CCN(CC2)Cc2cc(ccc2F)Nc2nccc(n2)-c2ccc(nc2)NCCCN1 [Compound 2]
B. O=C1CN2CCN(CC2)Cc2cccc(c2)Nc2nccc(n2)-c2ccc(nc2)CN(C(=O)C2CC2)CCN1 [Compound 44]
C. Cc1cc2cc(c1)Nc1nccc(n1)-c1ccc(nc1)NCCCNC(=O)CN1CCN(CC1)C2 [Compound 7]
Asked: # rank by remaining activity at 1 µM, ascending (min first) Answer format: the labels, in the requested order.
Given back: A, B, C

I. CC(C)N1CCCNc2ccc(cn2)-c2ccnc(n2)Nc2cccc(c2)CN2CCN(CC2)CC1=O [Compound 22]
II. CN1CCCN(C)c2ccc(cn2)-c2ccnc(n2)Nc2cccc(c2)CN2CCN(CC1=O)CC2COCCO (stereo not shown) [Compound 103]
III. O=C1CN2CCN(CC2=O)Cc2cccc(c2)Nc2nccc(n2)-c2ccc(nc2)NCCCN1 [Compound 77]
Asked: Arrange the 3 compounds from largest to smallest remaining activity at 1 µM. I'd appreciate it if you listed the labels in the requested order.
Given back: II, I, III
(II: 28.3%, I: 17.3%, III: 6.27%)

I. O=C1NCCCNc2ccc(cn2)-c2ccnc(n2)Nc2cccc(c2)CN2CCN1CC2 [Compound 130]
II. O=C1CN2CCN(Cc3cccc(c3)Nc3nccc(n3)-c3ccc(nc3)NCCCN1)C(C(F)(F)F)C2 (stereo not shown) [Compound 50]
Asked: Smaller remaining activity at 1 µM value? Options are I and II In your reply, give the label of the chosen option.
Given back: II
(II: 12.4%, I: 21%)

* * *

target: Vps34 (PIK3C3 lipid kinase) (Homo sapiens, UniProt Q8NEB9); assay: Biochemical Vps34 lipid kinase assay (ADP-Glo); settings: serial half-log dilution 10 μM to 0.3 nM; pIC50 = -log IC50 (M)
Value Type: IC50 (M)

Compound	Target Or Test System	Value Unit	IC50
O=C1CN2CCN(Cc3cccc(c3)Nc3nccc(n3)-c3ccc(nc3)NCCCN1)C(C(F)(F)F)C2 (stereo not drawn) [Compound 50]	Vps34 (PIK3C3 lipid kinase) (Homo sapiens, UniProt Q8NEB9)	M	3.98e-07
O=C1CN2CCN(CC2)Cc2cc(ccc2C(=O)O)Nc2nccc(n2)-c2ccc(nc2)NCCCN1 [Compound 16]	Vps34 (PIK3C3 lipid kinase) (Homo sapiens, UniProt Q8NEB9)	M	3.63e-07

A. CN1CCCN(C)c2ccc(cn2)-c2ccnc(n2)Nc2cccc(c2)CN2CCNC(CC1=O)C2 (stereo not drawn) [Compound 128]
B. COCCOCC1CN2CCN1Cc1cccc(c1)Nc1nccc(n1)-c1ccc(nc1)N(C)CCCN(C)C(=O)C2 (stereo not drawn) [Compound 101]
Asked: Given A and given B , which shows the smaller recorded IC50? Which one? Tell me its label.
Given back: A
(A: 1.02e-07 M, B: 7.76e-07 M)

* * *

target: Vps34 (PIK3C3 lipid kinase) (Homo sapiens, UniProt Q8NEB9); experiment: Biochemical Vps34 lipid kinase assay (ADP-Glo); conditions: serial half-log dilution 10 μM to 0.3 nM; pIC50 = -log IC50 (M)
Value Type: IC50 (M)

I. CN1CCN(C)c2ccc(cn2)-c2ccnc(n2)Nc2ccc(O)c(c2)CN2CCN(CC2)CC1=O [Compound 131]
II. CN1CCCN(C)c2ccc(cn2)-c2ccnc(n2)Nc2cccc(c2)CN2CCN(CC1=O)CC2CO (single isomer, unassigned) [Compound 53]
Asked: Field: lower IC50 | Options: I / II Output the label that corresponds to your choice.
Given back: I
(I: 1.74e-07 M, II: 2.75e-07 M)

A. O=C1CN2CCN(CC2)Cc2cccc(c2)Nc2nccc(n2)-c2ccc(nc2)CN(C(=O)C(F)(F)F)CCN1 [Compound 132]
B. CN1CCCN(C)c2ccc(cn2)-c2ccnc(n2)Nc2cccc(c2)CN2CCN(CC1=O)CC2COCCO (stereo not shown) [Compound 103]
Asked: Larger number for IC50: A , or B ? Refer to your chosen entry by its label in the reply.
Given back: B
(B: 6.76e-07 M, A: 1.91e-07 M)

* * *

biological target: Vps34 (PIK3C3 lipid kinase) (Homo sapiens, UniProt Q8NEB9); test: Biochemical Vps34 lipid kinase assay (ADP-Glo); conditions: 1 h, single dose 1 μM compound; residual activity compared to control (DMSO); read-out: VPS34_1microM_% of cntrl
Value Type: remaining activity at 1 µM (%)

a. CN1CCCCN(C)c2ccc(cn2)-c2ccnc(n2)Nc2cccc(c2)CN2CCN(CC2)CC1=O [Compound 20]
b. O=C1CC2CCN(CC2)Cc2cccc(c2)Nc2nccc(n2)-c2ccc(nc2)NCCCN1 [Compound 79]
Asked: Field: entry with larger remaining activity at 1 µM (options a / b ). Output the label that corresponds to your choice.
Given back: b
(b: 24.3%, a: 8.85%)

* * *

target: Vps34 (PIK3C3 lipid kinase) (Homo sapiens, UniProt Q8NEB9); assay: Biochemical Vps34 lipid kinase assay (ADP-Glo); conditions: serial half-log dilution 10 μM to 0.3 nM; pIC50 = -log IC50 (M)
Value Type: IC50 (M)

Worked cases, answers included:
Molecule	IC50 (M)
O=C1CN2CCN(CC2)C(=O)c2cccc(c2)Nc2nccc(n2)-c2ccc(nc2)NCCCN1	2e-07
CNC(=O)c1ccc2cc1CN1CCN(CC1)CC(=O)NCCCNc1ccc(cn1)-c1ccnc(n1)N2	8.71e-08

A. CC1CN2CCN1Cc1cccc(c1)Nc1nccc(n1)-c1ccc(nc1)N(C)CCCN(C)C(=O)C2 (stereo not shown)
B. C=CCN1CCNC(=O)CN2CCN(CC2)Cc2cccc(c2)Nc2nccc(n2)-c2ccc(nc2)C1
Asked: Identify the entry with the smaller IC50: A or B . Please reply using the label of the selected record.
Given back: B
(B: 1.66e-07 M, A: 4.27e-07 M)

I. O=C1CN2CCN(CC2)S(=O)(=O)c2cccc(c2)Nc2nccc(n2)-c2ccc(nc2)NCCCN1
II. O=C1CN2CCN(CC2)Cc2cccc(c2)Nc2nccc(n2)-c2ccc(nc2)NCC(O)CN1 (single isomer, unassigned) [Compound 24]
Asked: Input pair: I , II . Output: entry with lower IC50. To answer, give the label that identifies your chosen option.
Given back: II
(II: 1.23e-07 M, I: 4.47e-07 M)
